pKi: −log10 of the molar value.
// each record: one item and its pKi for human V1A receptor (Homo sapiens)
Endpoint name: pKi

- Molecule: "CN1Cc2cc(Cl)ccc2-n2c(nnc2C2CCN(C(=O)c3cc4ccccc4[nH]3)CC2)C1"
  Endpoint name: "pKi"
  Result value: 7.46
- Molecule: "CN1Cc2cc(Cl)ccc2-n2c(nnc2C2CCN(C(=O)CC3CC3)CC2)C1"
  Endpoint name: "pKi"
  Result value: 7.21
- Molecule: "CN1Cc2cc(Cl)ccc2-n2c(nnc2C2CCN(C(=O)c3ccc4cc[nH]c4c3)CC2)C1"
  Endpoint name: "pKi"
  Result value: 7.80
- Molecule: "CN1Cc2cc(Cl)ccc2-n2c(nnc2C2CCN(C(=O)c3c[nH]c4ccccc34)CC2)C1"
  Endpoint name: "pKi"
  Result value: 7.13
- Molecule: "CN1Cc2cc(Cl)ccc2-n2c(nnc2C2CCN(C(=O)C3(C)CCCCC3)CC2)C1"
  Endpoint name: "pKi"
  Result value: 7.22
- Molecule: "Cc1ccccc1CC(=O)N1CCC(c2nnc3n2-c2ccc(Cl)cc2CN(C)C3)CC1"
  Endpoint name: "pKi"
  Result value: 7.46
